Molecular target: human androgen receptor (AR) (Homo sapiens, UniProt P10275)
Construct: expressed in transfected cells; host or cells: mouse myoblast C2C12 cells, transiently co-transfected
Experiment: C2C12 AR/ARE reporter assay
Format: cell-based
The following compounds are listed with their measured EC50 values.
Please state the figure in nM; there is no need to write the unit.

CC(C)C(=O)NC1CCc2c(c3cc(-c4nnc(N)s4)ccc3n2Cc2cccc(F)c2)C1 (centres unmarked)	68.5

State, for human androgen receptor (AR) (Homo sapiens, UniProt P10275), measured EC50 of the compound listed here: CC(C)C(=O)NC1CCc2c(c3cc(F)ccc3n2Cc2cccc(C#N)c2)C1 (centres unmarked)
2180

Quote EC50 with test system human androgen receptor (AR) (Homo sapiens, UniProt P10275) for CO/N=C/c1ccc2c(c1)c1c(n2Cc2ccccn2)CCC(NC(=O)C2CC2)C1 (centres unmarked)
11.6

Look up and report EC50, with human androgen receptor (AR) (Homo sapiens, UniProt P10275) as system, for CC(C)C(=O)NC1CCc2c(c3cc(C#N)ccc3n2Cc2cc(F)cc(F)c2)C1 (centres unmarked)
1.9

State the measured EC50 (human androgen receptor (AR) (Homo sapiens, UniProt P10275)) of CC(C)C(=O)NC1CCc2c(c3cc(-c4ccccn4)ccc3n2Cc2cccc(F)c2)C1 (centres unmarked)
65.2

* * *

Target: human AR (androgen receptor) (Homo sapiens, UniProt P10275)
Construct: expressed in transfected cells; host or cells: 293 cells (293-AR lysate)
Assay: Steroid hormone nuclear receptor binding assay, AR binding
reported.endpoint: Ki (nM)
Your answer should be a plain number; it is taken to be in nM.

CC(C)C(=O)NC1CCc2c(c3cc(N(C)C)ccc3n2Cc2cccc(F)c2)C1 (centres unmarked)	110
CCCOc1ccc2c(c1)c1c(n2Cc2cccc(F)c2)CCC(NC(=O)C(C)C)C1 (centres unmarked)	12.4
CO/N=C/c1ccc2c(c1)c1c(n2Cc2cccc(F)c2)CC[C@@H](NC(=O)C2CC2)C1	3
N#Cc1ccc2c(c1)c1c(n2Cc2cccc(F)c2)CCC(NC(=O)C2CC2)C1 (centres unmarked)	4.3
Cc1nc(-c2ccc3c(c2)c2c(n3Cc3cccc(F)c3)CC[C@@H](NC(=O)C(C)C)C2)sc1C	196
COc1ccc2c(c1)c1c(n2Cc2ccccc2F)CCC(NC(=O)C(C)C)C1 (centres unmarked)	187
COc1cccc2c3c(n(Cc4ccccc4)c12)CCC(NC(=O)C(C)C)C3 (centres unmarked)	478

Provide only the value of recorded Ki for CC(C)C(=O)N[C@@H]1CCc2c(c3cc(C#N)ccc3n2Cc2ccccc2N)C1 (single isomer, unassigned)
4.8

* * *

Molecular target: human AR (androgen receptor) (Homo sapiens)
Construct: expressed in transfected cells; host or cells: 293 cells (293-AR lysate)
Assay: Steroid hormone nuclear receptor binding assay, AR binding
reported.endpoint: pKi
Notebook: values listed as pKi are -log10 of the concentration (mol/L).

Please review the following examples before continuing.
CC(C)C(=O)NC1CCc2c(c3cc(F)ccc3n2Cc2ccccc2C#N)C1 (centres unmarked) [Example 7]	7.00
CCOC(=O)c1ccc2c(c1)c1c(n2Cc2cccc(F)c2)CCC(NC(=O)C(C)C)C1 (centres unmarked) [Example 52]	8.21
COc1cc2c3c(n(Cc4cccc(F)c4)c2cc1Cl)CCC(NC(=O)C(C)C)C3 (centres unmarked) [Example 59]	7.23

Return the recorded pKi value; entry: CC(C)C(=O)NC1CCc2c(c3cc(F)ccc3n2Cc2ccc(F)cc2)C1 (centres unmarked) [Example 12]
7.60

Give reported pKi value for CC(C)C(=O)NC1CCc2c(c3cc(-c4ccccn4)ccc3n2Cc2cccc(F)c2)C1 (centres unmarked) [Example 131]
6.93

Give the value of pKi reported for the following: CC(C)C(=O)N[C@@H]1CCc2c(c3cc(C#N)ccc3n2Cc2ccccn2)C1 [Example 161]
8.17

Specify measured pKi for CC(C)C(=O)NC1CCc2c(c3cc(-c4cccnc4)ccc3n2Cc2cccc(F)c2)C1 (centres unmarked) [Example 132] .
8.13

Identify pKi associated with the compound CC(C)C(=O)NC1CCc2c(c3cc(C#N)ccc3n2Cc2cnc(Cl)s2)C1 (centres unmarked) [Example 155]
7.87

* * *

Target: human AR (androgen receptor) (Homo sapiens)
Construct: expressed in transfected cells; host or cells: 293 cells (293-AR lysate)
Sequence (P10275 1-920): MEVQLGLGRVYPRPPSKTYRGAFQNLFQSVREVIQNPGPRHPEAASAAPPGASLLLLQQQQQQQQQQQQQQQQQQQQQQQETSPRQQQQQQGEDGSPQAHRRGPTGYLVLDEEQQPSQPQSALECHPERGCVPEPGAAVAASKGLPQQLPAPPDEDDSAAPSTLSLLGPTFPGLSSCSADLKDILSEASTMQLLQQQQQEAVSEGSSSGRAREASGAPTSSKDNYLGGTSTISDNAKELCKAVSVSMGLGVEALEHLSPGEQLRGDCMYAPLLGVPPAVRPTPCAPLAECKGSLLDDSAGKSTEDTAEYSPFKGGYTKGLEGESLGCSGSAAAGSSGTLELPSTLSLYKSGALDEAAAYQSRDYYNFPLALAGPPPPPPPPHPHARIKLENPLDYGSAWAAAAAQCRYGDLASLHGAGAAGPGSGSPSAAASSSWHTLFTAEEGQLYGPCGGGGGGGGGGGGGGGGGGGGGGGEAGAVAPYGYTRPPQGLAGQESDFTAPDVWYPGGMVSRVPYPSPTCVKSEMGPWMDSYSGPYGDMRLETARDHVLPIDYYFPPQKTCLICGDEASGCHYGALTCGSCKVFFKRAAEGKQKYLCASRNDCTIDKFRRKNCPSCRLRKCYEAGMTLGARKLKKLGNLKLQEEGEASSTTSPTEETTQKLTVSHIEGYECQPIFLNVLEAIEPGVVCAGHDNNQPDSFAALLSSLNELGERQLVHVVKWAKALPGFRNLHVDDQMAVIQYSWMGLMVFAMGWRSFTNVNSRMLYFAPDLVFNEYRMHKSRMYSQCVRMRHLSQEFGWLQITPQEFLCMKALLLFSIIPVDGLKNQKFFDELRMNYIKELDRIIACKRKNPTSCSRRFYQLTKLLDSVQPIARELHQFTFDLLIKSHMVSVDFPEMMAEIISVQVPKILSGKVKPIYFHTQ
Assay: Steroid hormone nuclear receptor binding assay, AR binding
reported.endpoint: Ki (nM)
Please state the figure in nM; there is no need to write the unit.

Please review the following examples before continuing.
CC(C)C(=O)NC1CCc2c(c3cc(Br)ccc3n2Cc2cccc(Cl)c2)C1 (stereo not drawn)	7.6
CC(C)C(=O)NC1CCc2c(c3cc(C(=O)C(F)(F)F)ccc3n2Cc2cccc(F)c2)C1 (stereo not drawn)	15.5
CC(C)C(=O)NC1CCc2c(c3cc(C#N)ccc3n2Cc2ccccc2N)C1 (stereo not drawn)	15.9
CC(C)C(=O)NC1CCc2c(c3c(Cl)c(C#N)ccc3n2Cc2cccc(F)c2)C1 (stereo not drawn)	4.5
Cc1nc(Cn2c3c(c4cc(C=O)ccc42)C[C@H](NC(=O)C(C)C)CC3)cs1	43.7

As a next step, examine the compound that follows.
In one line, give reported Ki of the entry CO/N=C/c1ccc2c(c1)c1c(n2Cc2ccccn2)CCC(NC(=O)C2CC2)C1 (stereo not drawn) .
41.6

* * *

Target: human androgen receptor (AR) (Homo sapiens, UniProt P10275)
Construct: expressed in transfected cells; host or cells: mouse myoblast C2C12 cells, transiently co-transfected
Test: C2C12 AR/ARE reporter assay
Type: cell-based
Conditions: C2C12, read-out: C2C12 % Efficacy
# key: entry, value: Emax
Provide the reading as a plain figure in %.

# count of solved cases: 3
CC(C)C(=O)NC1CCc2c(c3cc(S(C)(=O)=O)ccc3n2Cc2cccc(F)c2)C1 (centres unmarked) [Example 53]	107
CC(C)C(=O)NC1CCc2c(c3ccccc3n2Cc2cccc(F)c2)C1 (centres unmarked) [Example 3]	66.4
COc1ccc(Cn2c3c(c4cc(Cl)ccc42)CC(NC(=O)C(C)C)CC3)cc1 (centres unmarked) [Example 27]	23.2

Fetch value of Emax on human androgen receptor (AR) (Homo sapiens, UniProt P10275) for CC(C)C(=O)NC1CCc2c(c3cc(C#N)ccc3n2Cc2ccccc2O)C1 (centres unmarked) [Example 107] .
86.2

Report value only: Emax, human androgen receptor (AR) (Homo sapiens, UniProt P10275), COc1ccc2c(c1)c1c(n2Cc2ccncc2)CCC(NC(=O)C(C)C)C1 (centres unmarked) [Example 145]
46.6

State measured Emax of the compound CC(C)C(=O)NC1CCc2c(c3cc(Cl)ccc3n2Cc2cccc(Cl)c2)C1 (centres unmarked) [Example 22] with human androgen receptor (AR) (Homo sapiens, UniProt P10275).
74.7

Provide human androgen receptor (AR) (Homo sapiens, UniProt P10275) Emax reading for CC(C)C(=O)NC1CCc2c(c3cc(C(N)=O)ccc3n2Cc2cccc(F)c2)C1 (centres unmarked) [Example 63] .
113

Under human androgen receptor (AR) (Homo sapiens, UniProt P10275): report Emax of COc1cccc(Cn2c3c(c4cc(OC)ccc42)CC(NC(=O)C(C)C)CC3)c1 (centres unmarked) [Example 73] .
54.7

Report the value of Emax obtained on human androgen receptor (AR) (Homo sapiens, UniProt P10275) for CO/N=C/c1ccc2c(c1)c1c(n2Cc2ccccn2)CCC(NC(=O)C2CC2)C1 (centres unmarked) [Example 207] .
93.3

Provide Emax, system human androgen receptor (AR) (Homo sapiens, UniProt P10275), entry CC(C)C(=O)N[C@H]1CCc2c(c3cc(C#N)ccc3n2Cc2cccc(F)c2)C1 [Example 124]
49.9

Provide Emax, recorded with human androgen receptor (AR) (Homo sapiens, UniProt P10275), of Cc1ccc2c(c1)c1c(n2Cc2ccccc2)CCC(NC(=O)C(C)C)C1 (centres unmarked) [Example 42]
73

Look up and report measured Emax (human androgen receptor (AR) (Homo sapiens, UniProt P10275)) for the following compound: CC(C)C(=O)NC1CCc2c(c3cc(Br)ccc3n2Cc2cccc(Cl)c2)C1 (centres unmarked) [Example 36]
99.4
